Assay: binders of probe aHhip on microarray, primary screen, stem cell growth factor project, biochemical, small-molecule microarray, fluorescence 635/667 (AID 1087);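 note: score merges spot fluorescence at 667nm with spot signal to noise ratio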
Details: higher = more signal

- molecule: "[N-]=[N+]=NCc1ccccc1C[C@@]1(C(=O)N2CCOCC2)N=C(c2ccc(OCCCO)cc2)O[C@@H]1c1ccccc1"
  composite z-score: 0.0749
- molecule: "O=C1OCC=C[C@H]2OC34C=CCN(Cn5nnc6ccccc65)C(=O)[C@H]3N(CCCO)C(=O)[C@@H]4[C@@H]12 (some centres undefined)"
  composite z-score: -0.0618
- molecule: "CCC(CC)C(O)C1C=CC2C(=O)N(c3ccccc3)C(=O)C2N1Nc1ccc(C(C)C)cc1 (centres undefined)"
  composite z-score: -0.195
- molecule: "CC(C)(C)OC(=O)CC[C@]1(C(=O)NCc2ccccc2)N=C(c2ccc(OCCCO)cc2)O[C@H]1c1ccccc1CN=[N+]=[N-]"
  composite z-score: -0.0296
- molecule: "CC(CO)N1C(=O)[C@@H]2[C@H]3C(=O)OCC=C[C@H]3OC23C=CCN(C(C)(C)C)C(=O)[C@@H]13 (some centres undefined)"
  composite z-score: -0.0618
- molecule: "CCCC[C@@H]1C[C@H]1[C@@H](NC(=O)c1ccccc1)c1ccc(C(F)(F)F)cc1"
  composite z-score: -0.175
- molecule: "O=C(CS)NCCCCCNC(=O)[C@@H]1C[C@@H]2C(=O)N3CCC[C@H]3C(=O)N2[C@@H]1c1cccc(OCCO)c1"
  composite z-score: -0.166
- molecule: "CC(C)OC(=O)C=C1C[C@@H](c2ccc(C(F)(F)F)cc2)O[C@@H](c2ccc(C(F)(F)F)cc2)O1"
  composite z-score: -0.214
- molecule: "COc1ccc(C#Cc2ccc3c(c2)[C@]2(C(=O)N3)[C@H](c3ccc(O)cc3)N3[C@H](c4ccccc4)[C@H](c4ccccc4)OC(=O)[C@H]3[C@@H]2C(=O)O)cc1"
  composite z-score: -1.08

----------
Tested on: Chordin-like protein 2 (CHRDL2)
Test: CHRDL2 small-molecule binders, primary screen, biochemical, small-molecule microarray, 635 nm fluorescence (AID 1126);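 note: printed compound slides probed with Chrdl2 protein at 4 µg/mL for 1 h at 4 C; score merges 667 nm emission intensity with signal to noise over three replicate slides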
Settings: small-molecule microarray binding, fluorescence 635 nm; higher = more signal
Class (by composite z-score) -- Low: < -0.1; Medium: ≥ -0.1 and < 0.4; High: ≥ 0.4

- compound: "[N-]=[N+]=NCc1ccccc1[C@@H]1OC(c2ccc(OCCCO)cc2)=N[C@]1(CCS(=O)(=O)c1ccccc1)C(=O)NCC(O)CO (stereo partly drawn)"
  test target: "Chordin-like protein 2 (CHRDL2)"
  class: "Low"
- compound: "O=C1C2C=CC(C(O)c3ccccc3)N(Nc3ccccc3F)C2C(=O)N1c1ccccc1 (stereo not drawn)"
  test target: "Chordin-like protein 2 (CHRDL2)"
  class: "Medium"
- compound: "O=C1C2C=CC(C(O)c3ccc(F)cc3)N(n3cnnc3)C2C(=O)N1Cc1ccccc1 (stereo not drawn)"
  test target: "Chordin-like protein 2 (CHRDL2)"
  class: "Low"
- compound: "CC=CC(O)C1C=CC2C(=O)N(c3ccccc3)C(=O)C2N1Nc1ccccc1F (stereo not drawn)"
  test target: "Chordin-like protein 2 (CHRDL2)"
  class: "Medium"
- compound: "C=C(C(=O)CC[C@@H](OC(C)=O)c1ccc(CO)o1)C(C)C"
  test target: "Chordin-like protein 2 (CHRDL2)"
  class: "High"
- compound: "O=C(CS)NCCCCCCNC(=O)[C@H]1C[C@H]2C(=O)N[C@@H](Cc3ccccc3)C(=O)N2[C@H]1c1ccc(O)cc1"
  test target: "Chordin-like protein 2 (CHRDL2)"
  class: "High"
- compound: "COC(=O)[C@@]1(Cc2ccc(F)cc2)[C@H]2c3cc(C(=O)N4CCCC4)n(CCc4ccc(O)c(O)c4)c3C[C@H]2CN1C(=O)c1ccccc1"
  test target: "Chordin-like protein 2 (CHRDL2)"
  class: "Low"
- compound: "COc1ccc([Si](C)(C)[C@@H]2[C@@H](CC(=O)N(CCO)Cc3ccccc3)O[C@]3(C(=O)N(c4ccccc4)c4ccccc43)[C@H]2C)cc1"
  test target: "Chordin-like protein 2 (CHRDL2)"
  class: "High"
- compound: "[N-]=[N+]=NCc1ccccc1C[C@@]1(C(=O)N2CCCCC2)N=C(c2ccc(OCCCO)cc2)O[C@@H]1c1ccccc1"
  test target: "Chordin-like protein 2 (CHRDL2)"
  class: "Low"
- compound: "CCCCCCc1nc(-c2cc(C)c(OC)c(C)c2)c(C)c2c1[Si](C(C)C)(C(C)C)OC2"
  test target: "Chordin-like protein 2 (CHRDL2)"
  class: "High"
- compound: "C=CCC(OC(C)=O)[C@@H]1[C@@H](N(Cc2ccc(-c3ccccc3)cc2)C(=O)Cc2ccc(F)cc2)c2cc(OCCCO)ccc2N1C(=O)Cc1ccc(OC)cc1 (stereo partly drawn)"
  test target: "Chordin-like protein 2 (CHRDL2)"
  class: "Medium"
- compound: "COC(=O)[C@@]1(Cc2ccc(F)cc2)[C@H]2c3cc(C(=O)N4CCCC4)n(CCN4CNCC4=O)c3C[C@H]2CN1C(=O)c1ccccc1"
  test target: "Chordin-like protein 2 (CHRDL2)"
  class: "Low"
- compound: "COC(=O)CCCCCCC(=O)Nc1ccc(NC(=O)CCCC[P+](c2ccccc2)(c2ccccc2)c2ccccc2)cc1"
  test target: "Chordin-like protein 2 (CHRDL2)"
  class: "High"
- compound: "COCCCNC(=O)[C@@]1(Cc2ccccc2CN=[N+]=[N-])N=C(c2ccc(OCCCO)cc2)O[C@H]1c1ccccc1"
  test target: "Chordin-like protein 2 (CHRDL2)"
  class: "Low"
- compound: "CN1C(=O)C2C=CC(C(O)C#Cc3ccccc3)N(Nc3ccccc3)C2C1=O (stereo not drawn)"
  test target: "Chordin-like protein 2 (CHRDL2)"
  class: "Medium"
- compound: "COc1ccc(C#Cc2ccc3c(c2)[C@]2(C(=O)N3)[C@H](c3ccc(O)cc3)N3[C@H](c4ccccc4)[C@H](c4ccccc4)OC(=O)[C@H]3[C@@H]2C(=O)O)cc1"
  test target: "Chordin-like protein 2 (CHRDL2)"
  class: "Medium"
- compound: "C=CC[C@]1(C(=O)O)COC(c2ccc(OCCCO)cc2)=N1"
  test target: "Chordin-like protein 2 (CHRDL2)"
  class: "High"
- compound: "CCCCO[C@H]1C[C@H]2C(I)=C[C@@H]1C(=O)[C@]21CO1"
  test target: "Chordin-like protein 2 (CHRDL2)"
  class: "Medium"
